# system.name: T1, human EGFRvIII expressed on cells (human, UniProt P00533 298-1210)
# T1 construct: the F98-npEGFRvIII line was obtained from ATCC and its construct is not described; also called F98-npEGFRvIII; F98-EGFRvIII
# protocol.details: flow cytometry, F98-npEGFRvIII against F98, F98-EGFRwt and A431 cells
measurement.label: fold MFI on EGFRvIII expressing cell line over non-expressing cell lines

Please look up its fold MFI on EGFRvIII expressing cell line over non-expressing cell lines: 26B9 (antibody, V domains shown, Hybridoma supernatant (AlivaMab mouse); captured/detected via mouse Fc) VH: EVQLVESWGVLVKPGGSLRLSCAASGFIFNNAWMSWVRQAPGKGLEWIGRIKSKSDGGTTDYAAPVKDRFTISRDDSKDTLYLQMNGLKTEDTAVYFCTTAPGGPFDYWGQGTLVTVSS VL: DIVLTQSPLSLPVTPGEPASISCRSSQSLLHRDGFNYLDWFLQKPGQSPQLLIYLASSRASGVPDRFSGSDSGTDFTLKISRVEAEDVGVYYCMQALQTPITFGQGTRLEIK
≥ 10 fold

Also check 32G8 (antibody, V domains shown, Hybridoma supernatant (AlivaMab mouse); captured/detected via mouse Fc) VH: EVNLVESGGGLVKPGGSLRLSCEASGFTFSYAWMSWVRQAPGKGLEWVGRIKSITDGGVIDYAAPVRNRCTISRDDSRNTLYLEMHSLKTEDTAVYYCTTIPGNDDFDMWGQGRMVTVSS VL: DIVLTQSPLSLSVTPGEPASISCRSSQSLLYSNGKNYLDWFLHKPGQSPQLLIYLGSNRASGVPDRFSGSGSGIDFILKISRVEAEDVGVYYCMQAQQTPITFGQGTRLEIK
≥ 10 fold

For 32A10 (antibody, V domains shown, Hybridoma supernatant (AlivaMab mouse); captured/detected via mouse Fc) VH: QVTLKESGPVLVKPTETLTLTCTVSGFSLSNARMGVSWIRQPPGKALEWLAHIFSTDEKSIRRSLRSRLTLSKDTSKSQVVLTMTNMDPVDTATYFCARDSSNYEGYFDYWGQGTLVTVSS VL: EVVMTQSPATLSVSPGERVTLSCRASQSVSSNFAWYQQRPGQAPRLLLYGATTRATGLPGRFSGSGSGTENILTISSLQSEDFAIYFCQQYKDWPFTFGPGSKVDIK then?
≥ 10 fold
